System: PA1 (human ovary)
Test: MTT cytotoxicity assay, PA1 cells
Format: cell-based
Conditions: human, 48 hours, 10 nM
Starred links: 1 amine or outer side, 2 acyl side, 3 side chain; linkers in the order of their positions; H or OH if unused. Non-standard residues stand in square brackets, D forms with d. Residues, ends and D or L forms follow the SMILES beside them. 2Furoyl(5-aminomethyl) = O=C(c1ccc(CN[*:1])o1)[*:2]; X2 = O=C([C@@H]1CC[C@H](CN[*:1])O1)[*:2]; X1 = O=C(C1CCC(CN[*:1])O1)[*:2]
Could you mark each record Yes if its Percent Cytotoxicity falls strictly under 20%, and No if it equals or exceeds it?

molecule: CSCC[C@H](N)C(=O)NC[C@H]1CC[C@@H](C(=O)N[C@@H](Cc2ccc(O)cc2)C(=O)N[C@@H](CC(C)C)C(=O)O)O1
label: Yes

molecule: CSCC[C@H](NC(=O)[C@@H](N)CC(C)C)C(=O)NCc1ccc(C(=O)N[C@@H](Cc2ccc(O)cc2)C(=O)N[C@@H](CC(C)C)C(=O)N[C@@H](CCCCN)C(=O)O)o1 [SEQ ID NO: 18, Leu-Met-Saa1-Tyr-Leu-Lys] (H-LM[2Furoyl(5-aminomethyl)]YLK-OH)
label: No

molecule: CSCC[C@H](NC(=O)[C@@H](N)CC(C)C)C(=O)N[C@@H](Cc1ccc(O)cc1)C(=O)NCC1CCC(C(=O)N[C@@H](Cc2ccc(O)cc2)C(=O)N[C@@H](CC(C)C)C(=O)N[C@@H](CCCCN)C(=O)O)O1 (stereo partly drawn) [SEQ ID NO: 12, Leu-Met-Tyr-Saa3-Tyr-Leu-Lys] (H-LMY[X1]YLK-OH)
label: No

molecule: CSCC[C@H](NC(=O)[C@@H](N)CC(C)C)C(=O)N[C@@H](Cc1ccc(O)cc1)C(=O)NC[C@H]1O[C@H](C(=O)N[C@H](C(=O)N[C@@H](Cc2ccc(O)cc2)C(=O)N[C@@H](CC(C)C)C(=O)N[C@@H](CCCCN)C(=O)O)[C@@H](C)O)[C@@H](OCc2ccccc2)[C@@H]1OCc1ccccc1
label: Yes

molecule: CSCC[C@H](NC(=O)[C@@H](N)CC(C)C)C(=O)N[C@@H](Cc1ccc(O)cc1)C(=O)NC[C@H]1CC[C@@H](C(=O)N[C@@H](Cc2ccc(O)cc2)C(=O)N[C@@H](CC(C)C)C(=O)N[C@@H](CCCCN)C(=O)O)O1 [SEQ ID NO: 13, Leu-Met-Tyr-Saa4-Tyr-Leu-Lys] (H-LMY[X2]YLK-OH)
label: No

* * *

Consider the following molecules and their measured Percent Cytotoxicity readings.
Tested on: KB (oral)
Test: MTT cytotoxicity assay, KB cells
Assay type: cell-based, human
Details: human, 48 hours, 100 nM
Starred links: 1 amine or outer side, 2 acyl side, 3 side chain; linkers in the order of their positions; H or OH if unused. Non-standard residues stand in square brackets, D forms with d. Residues, ends and D or L forms follow the SMILES beside them. X2 = O=C([C@@H]1CC[C@H](CN[*:1])O1)[*:2]
quantity.measured: Percent Cytotoxicity (%)

molecule: CSCC[C@H](NC(=O)[C@@H](N)CC(C)C)C(=O)N[C@@H](Cc1ccc(O)cc1)C(=O)NC[C@H]1CC[C@@H](C(=O)N[C@@H](Cc2ccc(O)cc2)C(=O)N[C@@H](CC(C)C)C(=O)N[C@@H](CCCCN)C(=O)O)O1 [SEQ ID NO: 13, Leu-Met-Tyr-Saa4-Tyr-Leu-Lys] (H-LMY[X2]YLK-OH)
result.value: 26.9
--
molecule: CSCC[C@H](N)C(=O)NCC1CCC(C(=O)N[C@@H](Cc2ccc(O)cc2)C(=O)N[C@@H](CC(C)C)C(=O)O)O1 (some centres unmarked)
result.value: 3.2

* * *

Consider the following compounds and their measured Percent Cytotoxicity readings.
System: PA1 (human ovary)
Test: MTT cytotoxicity assay, PA1 cells
Assay type: cell-based
Settings: human, 48 hours, 100 nM
Starred links: 1 amine or outer side, 2 acyl side, 3 side chain; linkers in the order of their positions; H or OH if unused. Non-standard residues stand in square brackets, D forms with d. Residues, ends and D or L forms follow the SMILES beside them. 2Furoyl(5-aminomethyl) = O=C(c1ccc(CN[*:1])o1)[*:2]; X2 = O=C([C@@H]1CC[C@H](CN[*:1])O1)[*:2]; X1 = O=C(C1CCC(CN[*:1])O1)[*:2]
quantity.measured: Percent Cytotoxicity (%)

compound: CSCC[C@H](NC(=O)[C@@H](N)CC(C)C)C(=O)N[C@@H](Cc1ccc(O)cc1)C(=O)NC[C@H]1O[C@H](C(=O)N[C@H](C(=O)N[C@@H](Cc2ccc(O)cc2)C(=O)N[C@@H](CC(C)C)C(=O)N[C@@H](CCCCN)C(=O)O)[C@@H](C)O)[C@@H](OCc2ccccc2)[C@@H]1OCc1ccccc1 [SEQ ID NO: 3, Leu-Met-Tyr-Saa2-Thr-Tyr-Leu-Lys]
quantity.measured: Percent Cytotoxicity
result.value: 12.5

compound: CSCC[C@H](N)C(=O)NCC1CCC(C(=O)N[C@@H](Cc2ccc(O)cc2)C(=O)N[C@@H](CC(C)C)C(=O)O)O1 (some centres unmarked) [SEQ ID NO: 16, Met-Saa3-Tyr-Leu]
quantity.measured: Percent Cytotoxicity
result.value: 19.0

compound: CSCC[C@H](NC(=O)[C@@H](N)CC(C)C)C(=O)N[C@@H](Cc1ccc(O)cc1)C(=O)NC[C@H]1CC[C@@H](C(=O)N[C@@H](Cc2ccc(O)cc2)C(=O)N[C@@H](CC(C)C)C(=O)N[C@@H](CCCCN)C(=O)O)O1 [SEQ ID NO: 13, Leu-Met-Tyr-Saa4-Tyr-Leu-Lys] (H-LMY[X2]YLK-OH)
quantity.measured: Percent Cytotoxicity
result.value: 38.0

compound: CSCC[C@H](NC(=O)[C@@H](N)CC(C)C)C(=O)N[C@@H](Cc1ccc(O)cc1)C(=O)NCC1CCC(C(=O)N[C@@H](Cc2ccc(O)cc2)C(=O)N[C@@H](CC(C)C)C(=O)N[C@@H](CCCCN)C(=O)O)O1 (stereo partly drawn) [SEQ ID NO: 12, Leu-Met-Tyr-Saa3-Tyr-Leu-Lys] (H-LMY[X1]YLK-OH)
quantity.measured: Percent Cytotoxicity
result.value: 39.3

compound: CSCC[C@H](NC(=O)[C@@H](N)CC(C)C)C(=O)NCc1ccc(C(=O)N[C@@H](Cc2ccc(O)cc2)C(=O)N[C@@H](CC(C)C)C(=O)N[C@@H](CCCCN)C(=O)O)o1 [SEQ ID NO: 18, Leu-Met-Saa1-Tyr-Leu-Lys] (H-LM[2Furoyl(5-aminomethyl)]YLK-OH)
quantity.measured: Percent Cytotoxicity
result.value: 21.8

* * *

Consider the following molecules and their measured Percent Cytotoxicity readings.
Tested on: PA1 (human ovary)
Assay: MTT cytotoxicity assay, PA1 cells
Type: cell-based
Conditions: human, 48 hours, 100 nM
Starred links: 1 amine or outer side, 2 acyl side, 3 side chain; linkers in the order of their positions; H or OH if unused. Non-standard residues stand in square brackets, D forms with d. Residues, ends and D or L forms follow the SMILES beside them. 2Furoyl(5-aminomethyl) = O=C(c1ccc(CN[*:1])o1)[*:2]

molecule: CSCC[C@H](N)C(=O)NC[C@H]1CC[C@@H](C(=O)N[C@@H](Cc2ccc(O)cc2)C(=O)N[C@@H](CC(C)C)C(=O)O)O1
unit.of.measure: %
Percent Cytotoxicity: 15.9
//
molecule: CSCC[C@H](NC(=O)[C@@H](N)CC(C)C)C(=O)N[C@@H](Cc1ccc(O)cc1)C(=O)NCc1ccc(C(=O)N[C@@H](Cc2ccc(O)cc2)C(=O)N[C@@H](CC(C)C)C(=O)N[C@@H](CCCCN)C(=O)O)o1 [SEQ ID NO: 10, Leu-Met-Tyr-Saa1-Tyr-Leu-Lys] (H-LMY[2Furoyl(5-aminomethyl)]YLK-OH)
unit.of.measure: %
Percent Cytotoxicity: 31.0

* * *

Tested on: KB (oral)
Assay: MTT cytotoxicity assay, KB cells
Format: cell-based, human
Conditions: human, 48 hours, 10 nM
Starred links: 1 amine or outer side, 2 acyl side, 3 side chain; linkers in the order of their positions; H or OH if unused. Non-standard residues stand in square brackets, D forms with d. Residues, ends and D or L forms follow the SMILES beside them. 2Furoyl(5-aminomethyl) = O=C(c1ccc(CN[*:1])o1)[*:2]
Consider the following molecules and their measured Percent Cytotoxicity readings.
quantity.measured: Percent Cytotoxicity

molecule: CSCC[C@H](N)C(=O)NCC1CCC(C(=O)N[C@@H](Cc2ccc(O)cc2)C(=O)N[C@@H](CC(C)C)C(=O)O)O1 (some centres unmarked)
result.value: 9.7 ± 0.4%

molecule: CSCC[C@H](NC(=O)[C@@H](N)CC(C)C)C(=O)NCc1ccc(C(=O)N[C@@H](Cc2ccc(O)cc2)C(=O)N[C@@H](CC(C)C)C(=O)N[C@@H](CCCCN)C(=O)O)o1 [SEQ ID NO: 18, Leu-Met-Saa1-Tyr-Leu-Lys] (H-LM[2Furoyl(5-aminomethyl)]YLK-OH)
result.value: 12.0 ± 0.3%

molecule: CSCC[C@H](NC(=O)[C@@H](N)CC(C)C)C(=O)N[C@@H](Cc1ccc(O)cc1)C(=O)NCc1ccc(C(=O)N[C@@H](Cc2ccc(O)cc2)C(=O)N[C@@H](CC(C)C)C(=O)N[C@@H](CCCCN)C(=O)O)o1 [SEQ ID NO: 10, Leu-Met-Tyr-Saa1-Tyr-Leu-Lys] (H-LMY[2Furoyl(5-aminomethyl)]YLK-OH)
result.value: 31.9 ± 2.9%

molecule: CSCC[C@H](NC(=O)[C@@H](N)CC(C)C)C(=O)N[C@@H](Cc1ccc(O)cc1)C(=O)NC[C@H]1O[C@H](C(=O)N[C@H](C(=O)N[C@@H](Cc2ccc(O)cc2)C(=O)N[C@@H](CC(C)C)C(=O)N[C@@H](CCCCN)C(=O)O)[C@@H](C)O)[C@@H](OCc2ccccc2)[C@@H]1OCc1ccccc1
result.value: 17.7 ± 0.5%

molecule: CSCC[C@H](N)C(=O)NCc1ccc(C(=O)N[C@@H](Cc2ccc(O)cc2)C(=O)N[C@@H](CC(C)C)C(=O)O)o1
result.value: 12.9 ± 0.5%
